Experiment: Solubility in gastric juice or intestinal juice model fluid (precipitation method using DMSO)
Format: physicochemical
Details: pH 6.8, kinetic from dmso stock, 2nd fluid for Disintegration Test of Japanese Pharmacopoeia (pH: 6.8), room temperature, read-out: Solubility (μg/mL) 2nd fluid
readout_name: solubility at 24 h (µg/mL)

# count of solved cases: 5
>  <compound>
COc1cc(OCc2ccc(C(F)(F)F)cn2)ccc1-c1cnc(-c2ccc(C#N)nc2)[nH]1

>  <solubility at 24 h, µg/mL>
0.3

$$$$
>  <compound>
COc1cc(OCc2ccc(C(F)(F)F)cn2)ccc1-c1nc(-c2ccc(Cl)nc2)[nH]c1C

>  <solubility at 24 h, µg/mL>
2.3

$$$$
>  <compound>
COc1cc(-c2[nH]c(C3CCCC3)nc2Cl)ccc1OCc1ccc(C(F)(F)F)cn1

>  <solubility at 24 h, µg/mL>
0.5

$$$$
>  <compound>
COc1cc(OCc2ncc(C(F)(F)F)cc2F)ccc1-c1[nH]c(-c2ccc(F)nc2)nc1CO

>  <solubility at 24 h, µg/mL>
2.9

$$$$
>  <compound>
COc1cc(OCc2ncccc2C(F)(F)F)ccc1-c1[nH]c(-c2ccc(F)nc2)nc1Br

>  <solubility at 24 h, µg/mL>
4.2

$$$$

A = COc1cc(-c2c[nH]c(C3CCC3)n2)ccc1OCc1ccc(C(F)(F)F)cn1
B = COc1cc(O)ccc1-c1cnc(C2CCC(F)(F)CC2)[nH]1
C = COc1cc(-c2cnc(C3CCC(F)(F)C3)[nH]2)ccc1OCc1ncc(C(F)(F)F)cc1F (centres unmarked)
D = COc1cc(OCc2coc(C)n2)ccc1-c1c[nH]c(-c2ccc(Cl)nc2)n1
E = COc1cc(OCc2ncc(C(F)(F)F)cc2F)ccc1-c1[nH]c(C2CCC(F)(F)CC2)nc1Br
[Q] Sequence the entries by solubility at 24 h, beginning with the highest number. Answer with the labels in sequence, matching the requested order.
[A] B, C, A, D, E
(B: 59.7 µg/mL, C: 15.8 µg/mL, A: 5.3 µg/mL, D: 2.2 µg/mL, E: 0.5 µg/mL)

These entries and their values trace back to patent US10570117B2.
